Cited source: patent US20100267697A1

# Tgt: human Cav2.2 (composed of the subunits α1, β3 and α2δ) (Homo sapiens, UniProt Q00975)
# Construct: expressed in transfected cells
# Sequence (Q00975 whole entry): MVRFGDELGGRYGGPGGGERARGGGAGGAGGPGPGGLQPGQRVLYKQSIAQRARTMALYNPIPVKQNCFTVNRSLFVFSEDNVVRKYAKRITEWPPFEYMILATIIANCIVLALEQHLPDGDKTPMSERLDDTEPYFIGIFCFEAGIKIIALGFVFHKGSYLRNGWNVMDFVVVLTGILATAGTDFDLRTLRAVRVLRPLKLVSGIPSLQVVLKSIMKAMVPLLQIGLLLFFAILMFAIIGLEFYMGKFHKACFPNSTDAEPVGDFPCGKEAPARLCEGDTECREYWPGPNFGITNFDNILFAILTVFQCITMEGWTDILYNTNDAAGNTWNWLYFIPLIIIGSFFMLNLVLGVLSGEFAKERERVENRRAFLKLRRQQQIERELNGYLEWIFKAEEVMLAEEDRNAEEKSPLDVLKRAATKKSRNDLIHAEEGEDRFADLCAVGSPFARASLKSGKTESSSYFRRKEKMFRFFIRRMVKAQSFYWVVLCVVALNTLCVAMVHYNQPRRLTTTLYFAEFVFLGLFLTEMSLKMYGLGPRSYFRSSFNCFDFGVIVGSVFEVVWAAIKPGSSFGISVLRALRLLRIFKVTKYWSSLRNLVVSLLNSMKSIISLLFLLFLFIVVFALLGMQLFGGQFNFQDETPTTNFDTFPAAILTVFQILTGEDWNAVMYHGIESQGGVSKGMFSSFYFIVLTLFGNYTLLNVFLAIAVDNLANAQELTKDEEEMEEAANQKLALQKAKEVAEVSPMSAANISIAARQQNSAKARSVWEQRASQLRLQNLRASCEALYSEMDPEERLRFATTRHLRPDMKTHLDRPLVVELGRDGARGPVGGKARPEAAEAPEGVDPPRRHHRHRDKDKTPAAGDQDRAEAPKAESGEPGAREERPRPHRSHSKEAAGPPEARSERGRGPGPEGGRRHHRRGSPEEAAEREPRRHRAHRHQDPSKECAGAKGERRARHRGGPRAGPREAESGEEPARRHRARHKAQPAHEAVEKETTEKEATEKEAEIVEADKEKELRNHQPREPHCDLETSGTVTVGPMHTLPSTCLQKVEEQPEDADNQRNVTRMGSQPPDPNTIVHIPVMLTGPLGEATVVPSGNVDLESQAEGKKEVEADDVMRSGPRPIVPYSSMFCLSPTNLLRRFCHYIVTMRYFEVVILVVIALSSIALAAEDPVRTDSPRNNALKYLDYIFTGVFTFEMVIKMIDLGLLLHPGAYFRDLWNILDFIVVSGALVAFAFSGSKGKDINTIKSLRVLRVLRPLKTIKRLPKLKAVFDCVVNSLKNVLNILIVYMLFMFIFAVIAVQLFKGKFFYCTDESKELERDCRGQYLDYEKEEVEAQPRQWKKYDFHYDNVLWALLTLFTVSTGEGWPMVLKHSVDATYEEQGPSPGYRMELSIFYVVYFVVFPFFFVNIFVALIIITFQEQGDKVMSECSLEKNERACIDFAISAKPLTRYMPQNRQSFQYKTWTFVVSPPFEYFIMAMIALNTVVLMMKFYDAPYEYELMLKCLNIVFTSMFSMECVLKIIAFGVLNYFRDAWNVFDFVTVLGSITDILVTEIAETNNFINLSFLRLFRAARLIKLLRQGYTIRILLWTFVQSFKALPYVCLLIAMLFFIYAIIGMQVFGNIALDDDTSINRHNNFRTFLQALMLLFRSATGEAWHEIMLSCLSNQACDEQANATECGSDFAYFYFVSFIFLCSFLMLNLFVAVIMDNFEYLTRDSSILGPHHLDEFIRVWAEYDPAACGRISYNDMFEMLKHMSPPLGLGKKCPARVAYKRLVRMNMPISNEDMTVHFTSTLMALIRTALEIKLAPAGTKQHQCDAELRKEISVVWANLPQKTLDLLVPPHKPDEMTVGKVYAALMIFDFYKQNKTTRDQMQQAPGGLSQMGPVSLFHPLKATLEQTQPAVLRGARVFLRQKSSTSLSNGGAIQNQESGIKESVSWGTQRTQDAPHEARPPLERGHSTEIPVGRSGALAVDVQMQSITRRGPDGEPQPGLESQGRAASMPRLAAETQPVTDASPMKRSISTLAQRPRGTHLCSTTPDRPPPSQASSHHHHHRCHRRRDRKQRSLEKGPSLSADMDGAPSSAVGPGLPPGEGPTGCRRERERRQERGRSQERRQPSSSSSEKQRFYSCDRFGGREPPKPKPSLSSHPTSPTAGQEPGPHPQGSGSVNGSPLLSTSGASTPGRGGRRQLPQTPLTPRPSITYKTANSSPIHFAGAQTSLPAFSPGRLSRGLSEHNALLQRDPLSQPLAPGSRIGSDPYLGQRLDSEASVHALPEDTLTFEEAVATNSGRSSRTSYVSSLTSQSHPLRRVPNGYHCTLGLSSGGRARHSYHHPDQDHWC
# Sequence (P54284 whole entry partner): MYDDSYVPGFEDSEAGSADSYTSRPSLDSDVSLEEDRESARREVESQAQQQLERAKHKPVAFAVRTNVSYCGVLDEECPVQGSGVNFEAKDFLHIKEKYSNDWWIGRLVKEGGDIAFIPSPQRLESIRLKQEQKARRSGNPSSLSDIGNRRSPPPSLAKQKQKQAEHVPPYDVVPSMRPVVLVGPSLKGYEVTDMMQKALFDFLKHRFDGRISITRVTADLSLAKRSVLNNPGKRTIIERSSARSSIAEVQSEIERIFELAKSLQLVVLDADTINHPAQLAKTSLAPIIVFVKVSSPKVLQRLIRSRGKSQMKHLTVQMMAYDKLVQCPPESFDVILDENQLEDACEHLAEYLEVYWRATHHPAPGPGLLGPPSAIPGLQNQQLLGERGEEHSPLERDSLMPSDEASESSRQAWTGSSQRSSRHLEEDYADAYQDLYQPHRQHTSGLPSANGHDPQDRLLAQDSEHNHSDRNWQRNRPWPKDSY
# Sequence (P54289 25-946 partner limits assumed): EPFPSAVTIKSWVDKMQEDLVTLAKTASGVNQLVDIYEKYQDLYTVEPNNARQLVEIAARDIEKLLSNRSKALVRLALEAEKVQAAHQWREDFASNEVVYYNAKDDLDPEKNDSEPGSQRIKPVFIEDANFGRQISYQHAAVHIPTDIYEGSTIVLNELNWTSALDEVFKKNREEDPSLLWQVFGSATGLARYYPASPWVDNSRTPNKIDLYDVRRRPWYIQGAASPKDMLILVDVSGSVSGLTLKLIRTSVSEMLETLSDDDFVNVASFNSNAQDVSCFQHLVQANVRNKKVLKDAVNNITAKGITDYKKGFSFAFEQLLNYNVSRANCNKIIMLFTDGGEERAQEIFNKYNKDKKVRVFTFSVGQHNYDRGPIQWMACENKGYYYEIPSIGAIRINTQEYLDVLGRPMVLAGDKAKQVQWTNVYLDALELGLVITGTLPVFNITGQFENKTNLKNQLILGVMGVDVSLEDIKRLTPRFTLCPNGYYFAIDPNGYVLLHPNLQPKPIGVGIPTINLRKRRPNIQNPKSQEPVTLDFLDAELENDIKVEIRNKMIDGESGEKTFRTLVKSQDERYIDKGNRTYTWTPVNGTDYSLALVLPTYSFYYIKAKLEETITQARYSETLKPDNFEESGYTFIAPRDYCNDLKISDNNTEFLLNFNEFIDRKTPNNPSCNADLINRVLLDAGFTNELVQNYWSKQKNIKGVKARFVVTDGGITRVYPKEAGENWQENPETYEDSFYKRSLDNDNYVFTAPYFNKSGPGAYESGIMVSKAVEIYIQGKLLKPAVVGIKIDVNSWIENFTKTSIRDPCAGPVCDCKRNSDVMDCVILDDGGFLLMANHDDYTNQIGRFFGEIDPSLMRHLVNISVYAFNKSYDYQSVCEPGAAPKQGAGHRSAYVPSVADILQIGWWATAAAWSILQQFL
# Sequence (P54289 947-1103 partner limits assumed): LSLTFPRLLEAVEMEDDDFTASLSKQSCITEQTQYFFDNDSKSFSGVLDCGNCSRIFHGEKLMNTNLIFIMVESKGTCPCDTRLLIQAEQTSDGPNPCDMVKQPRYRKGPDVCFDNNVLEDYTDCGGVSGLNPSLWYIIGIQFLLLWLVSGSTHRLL
# Method Description: FLIPR assay (TSA201 cells stably transfected with human Cav2.2 and human Kir2.3, FLUO-4 Ca2+ signal, KCl depolarization)
# Format: cell-based
# Assay Setup: 70 mM KCl depolarization, average value
Measurement Kind: pIC50
On this scale, pIC50 is minus log10 of a concentration expressed in M (mol/L).

Query :: Lookup: pIC50 / human Cav2.2 (composed of the subunits α1, β3 and α2δ) (Homo sapiens, UniProt Q00975) / `CC(C)(C)C(=O)N(Cc1csc(-c2cccc(O)c2)n1)c1ccc(F)cc1`
Result :: 5.27

Query :: Lookup: pIC50 / human Cav2.2 (composed of the subunits α1, β3 and α2δ) (Homo sapiens, UniProt Q00975) / `CC(=O)N(Cc1ccc(N2CCN(C)CC2)nc1)C1CCCCC1`
Result :: 4.53

Query :: Lookup: pIC50 / human Cav2.2 (composed of the subunits α1, β3 and α2δ) (Homo sapiens, UniProt Q00975) / `CC(=O)N(Cc1csc(N2CCOCC2)n1)C1CCCCC1`
Result :: 4.57

Query :: Lookup: pIC50 / human Cav2.2 (composed of the subunits α1, β3 and α2δ) (Homo sapiens, UniProt Q00975) / `CC(C)(C)C(=O)N(Cc1csc(N2CCCC2)n1)c1ccc(F)cc1`
Result :: 5.36

Query :: Lookup: pIC50 / human Cav2.2 (composed of the subunits α1, β3 and α2δ) (Homo sapiens, UniProt Q00975) / `CC(C)(C)C(=O)N(Cc1csc(C2CCCCC2)n1)c1ccc(F)cc1`
Result :: 5.21

Query :: Lookup: pIC50 / human Cav2.2 (composed of the subunits α1, β3 and α2δ) (Homo sapiens, UniProt Q00975) / `CC(=O)N(Cc1csc(N2CCC(O)CC2)n1)c1ccc(F)cc1`
Result :: 4.65

Query :: Lookup: pIC50 / human Cav2.2 (composed of the subunits α1, β3 and α2δ) (Homo sapiens, UniProt Q00975) / `CCN(c1nc(CN(C(=O)C(C)(C)C)c2ccc(F)cc2)cs1)C1CC1`
Result :: 5.42

Query :: Lookup: pIC50 / human Cav2.2 (composed of the subunits α1, β3 and α2δ) (Homo sapiens, UniProt Q00975) / `CCN(c1nc(CN(C(=O)[C@H]2CCCN2)c2ccc(F)cc2)cs1)C1CC1`
Result :: 4.99

Query :: Lookup: pIC50 / human Cav2.2 (composed of the subunits α1, β3 and α2δ) (Homo sapiens, UniProt Q00975) / `CC(=O)N(Cc1ccc(N2CCOCC2)nc1)c1ccc(F)cc1`
Result :: 4.46

Query :: Lookup: pIC50 / human Cav2.2 (composed of the subunits α1, β3 and α2δ) (Homo sapiens, UniProt Q00975) / `CCCNc1nc(CN(C(=O)C(C)(C)C)c2ccc(F)cc2)cs1`
Result :: 5.11

Query :: Lookup: pIC50 / human Cav2.2 (composed of the subunits α1, β3 and α2δ) (Homo sapiens, UniProt Q00975) / `CC(C)(C)OC(=O)N1CC[C@@H](C(=O)N(Cc2ccc(Cl)nc2)c2ccc(F)cc2)C1`
Result :: 5.55

Query :: Lookup: pIC50 / human Cav2.2 (composed of the subunits α1, β3 and α2δ) (Homo sapiens, UniProt Q00975) / `CC1CCN(c2nc(CN(C(=O)C(C)(C)C)c3ccc(F)cc3)cs2)CC1`
Result :: 5.72

Query :: Lookup: pIC50 / human Cav2.2 (composed of the subunits α1, β3 and α2δ) (Homo sapiens, UniProt Q00975) / `CC(=O)N(Cc1csc(N2CCC(C#N)CC2)n1)c1ccc(F)cc1`
Result :: 4.78

Query :: Lookup: pIC50 / human Cav2.2 (composed of the subunits α1, β3 and α2δ) (Homo sapiens, UniProt Q00975) / `CCN(c1nc(CN(C(=O)C(C)(C)C)c2ccccc2)cs1)C1CC1`
Result :: 5.29

Query :: Lookup: pIC50 / human Cav2.2 (composed of the subunits α1, β3 and α2δ) (Homo sapiens, UniProt Q00975) / `CC(C)(C)C(=O)N(Cc1csc(-c2ccc(F)cc2)n1)c1ccc(F)cc1`
Result :: 5.30
